test system: Plasmodium falciparum; assay: Antimalarial activity against chloroquine-sensitive Plasmodium falciparum D10; format: functional, organism-based
observed property: IC50 (nM)
The reply should contain only the number, in nM.

Could you tell me which IC50 is on file for CCC1C[C@@H]2CC[C@H]1CC2C(O)c1ccnc2c(NC(=O)CCCCC(=O)Nc3cccc4c(C(O)C5C[C@@H]6CC[C@H]5C(CC)C6)ccnc34)cccc12 (stereo partly specified) ?
50

###

What follows is a collection of pIC50 values obtained with Histone-lysine N-methyltransferase, H3 lysine-79 specific (Homo sapiens, UniProt Q8TEK3).
Sequence (Q8TEK3 whole entry): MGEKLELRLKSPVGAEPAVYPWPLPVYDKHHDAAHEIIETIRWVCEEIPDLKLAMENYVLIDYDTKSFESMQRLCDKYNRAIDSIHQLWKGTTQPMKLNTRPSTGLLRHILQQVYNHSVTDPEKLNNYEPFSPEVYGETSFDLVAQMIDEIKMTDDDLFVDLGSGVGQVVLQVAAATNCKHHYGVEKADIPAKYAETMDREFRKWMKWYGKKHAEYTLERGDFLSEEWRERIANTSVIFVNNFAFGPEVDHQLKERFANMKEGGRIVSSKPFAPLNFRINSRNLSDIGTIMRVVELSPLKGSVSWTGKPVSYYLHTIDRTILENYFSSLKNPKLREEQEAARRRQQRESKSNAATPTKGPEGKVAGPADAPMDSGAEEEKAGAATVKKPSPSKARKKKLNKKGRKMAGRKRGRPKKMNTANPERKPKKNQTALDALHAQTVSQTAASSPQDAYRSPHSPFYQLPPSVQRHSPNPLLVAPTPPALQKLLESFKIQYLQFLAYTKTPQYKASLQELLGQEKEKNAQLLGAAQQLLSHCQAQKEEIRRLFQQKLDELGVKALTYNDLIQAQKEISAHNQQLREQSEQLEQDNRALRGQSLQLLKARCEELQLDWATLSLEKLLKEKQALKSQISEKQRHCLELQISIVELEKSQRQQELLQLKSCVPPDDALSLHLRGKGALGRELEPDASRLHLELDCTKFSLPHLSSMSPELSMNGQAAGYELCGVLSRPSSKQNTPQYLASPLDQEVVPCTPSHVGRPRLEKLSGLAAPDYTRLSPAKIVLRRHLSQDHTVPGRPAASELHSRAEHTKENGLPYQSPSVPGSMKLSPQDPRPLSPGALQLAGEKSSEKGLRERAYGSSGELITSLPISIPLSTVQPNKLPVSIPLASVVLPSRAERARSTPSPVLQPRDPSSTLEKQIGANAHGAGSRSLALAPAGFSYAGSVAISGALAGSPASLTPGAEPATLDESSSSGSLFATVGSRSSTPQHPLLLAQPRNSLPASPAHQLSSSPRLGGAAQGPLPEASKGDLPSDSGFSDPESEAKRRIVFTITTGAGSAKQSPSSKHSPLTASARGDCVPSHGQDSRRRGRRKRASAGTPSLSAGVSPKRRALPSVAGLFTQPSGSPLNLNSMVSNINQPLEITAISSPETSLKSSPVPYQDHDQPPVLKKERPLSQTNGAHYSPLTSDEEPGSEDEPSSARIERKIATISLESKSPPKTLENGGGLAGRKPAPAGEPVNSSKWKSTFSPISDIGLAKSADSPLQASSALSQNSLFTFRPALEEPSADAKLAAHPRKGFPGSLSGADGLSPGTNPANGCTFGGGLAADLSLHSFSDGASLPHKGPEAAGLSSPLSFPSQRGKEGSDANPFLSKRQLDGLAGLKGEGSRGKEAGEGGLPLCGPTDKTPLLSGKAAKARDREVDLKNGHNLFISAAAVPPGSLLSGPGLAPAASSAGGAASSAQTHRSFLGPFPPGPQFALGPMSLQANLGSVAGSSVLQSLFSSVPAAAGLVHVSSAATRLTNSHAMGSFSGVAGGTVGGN
# reply with the number alone; pIC50 is -log10 of concentration in mol/L

Could you tell me which pIC50 is on file for "Cc1cc(Nc2ccc3nc(C)cc(O)c3c2)nc(Nc2ccc3nc(C)cc(O)c3c2)n1" ?
5.36

Consider next the compound "Cc1cc(N)c2cc(Nc3cc(Nc4ccc5nc(C)cc(N)c5c4)ncn3)ccc2n1" in the same way.
5.97

Consider next the compound "Cc1cc(Nc2ccc3nc(C)cc(N)c3c2)nc(Nc2ccc3nc(C)cc(N)c3c2)n1" in the same way.
5.82

###

experiment: Selectivity index, ratio of CC50 for human MRC5 cells to IC50 for chloroquine-resistant Plasmodium falciparum FcB1; format: toxicity; conditions: read-out: Ratio CC50/IC50
observed property: selectivity ratio
Give the figure only, with no unit attached.

Could you tell me which selectivity ratio is on file for "Clc1ccc2c(NCCCN3CCN(CCCNCc4ccnc5ccccc45)CC3)ccnc2c1" ?
816

###

tested on: MV4-11; assay: Antiproliferative activity against human MV4-11 cells; type: functional, cell-based
observed property: IC50 (µM)
The reply should contain only the number, in µM.

Could you tell me which IC50 is on file for "Cc1cc(N)c2cc(Nc3cc(Nc4ccc5nc(C)cc(N)c5c4)ncn3)ccc2n1" ?
30.5

###

test system: HL-60; assay: Antiproliferative activity against human HL60 cells; assay type: functional, cell-based
So I've got a bunch of compounds here, and I need their pIC50 values.
# reply with the number alone; pIC50 is -log10 of concentration in mol/L

Could you tell me which pIC50 is on file for "C[C@H]1COc2c(N3CCN(C)CC3)c(F)cc3c(=O)c(-c4nn5c(-c6cn(C7CC7)c7cc(N8CCNCC8)c(F)cc7c6=O)nnc5s4)cn1c23" ?
6.92

Consider next the compound "CN1CCN(c2cc3c(cc2F)c(=O)c(-c2nn4c(-c5cn(C6CC6)c6cc(N7CCNCC7)c(F)cc6c5=O)nnc4s2)cn3C2CC2)CC1" in the same way.
6.27

###

test: Cytotoxicity against human MRC5 cells; assay type: cell-based
observed property: CC50 (µM)
The reply should contain only the number, in µM.

Could you tell me which CC50 is on file for "Clc1ccc2c(NCCCN3CCN(CCCNCc4ccnc5ccccc45)CC3)ccnc2c1" ?
16.4

###

tested on: Kasumi 1; test: Antiproliferative activity against human Kasumi-1 cells; format: functional, cell-based
observed property: IC50 (µM)
The reply should contain only the number, in µM.

Could you tell me which IC50 is on file for "Cc1cc(N)c2cc(Nc3cc(Nc4ccc5nc(C)cc(N)c5c4)ncn3)ccc2n1" ?
45.8

Where do the numbers come from? From ChEMBL document CHEMBL4325848.
